B1: TAF7L (parent)
chain: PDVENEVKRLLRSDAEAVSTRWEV

Variants of: B1
Assay: protein stability index of a GFP-peptide fusion (GPS, HEK-293T) (PSI 1-6); higher = more stable;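 note: lentivirally expressed fusions sorted by FACS into six bins by GFP to DsRed ratio, PSI derived from sequencing read proportions per bin multiplied by bin number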
Conditions: c terminus: a fixed tail appended
protein stability index values by entry
// no unit string in output, number only

Worked examples follow.
R12P ... 4.61
T20N ... 3.28
S13Q ... 2.09
R21A ... 3.19
L11S ... 3.53

Just so you know, measured protein stability index for V24G came out at 4.61

Just so you know, measured protein stability index for P1S came out at 4.05

Just so you know, measured protein stability index for S19M came out at 2.48

Just so you know, measured protein stability index for R9Y came out at 2.41
